experiment: qHTS Screen of the MIPE 4.0 Collection Against Ewings Sarcoma (EW8) (AID 1259255); details: EW8 Ewing sarcoma viability, CellTiter-Glo, 48 h; series mostly up to 45.8 µM; note: nearly all actives have a fitted effect of over 35% in size
Inconclusive results are not listed. The source made the active and inactive calls. Calls come from the whole dose curve; as a rule, active = well fitted inhibition curve with a large enough effect; inconclusive = small, poorly fitted or top-dose-only effect; inactive = no such curve, though single readings can be large or run the other way.
Valid outcomes are listed here; reply with one: TRUE for active, FALSE for inactive

QUERY: Fill in: this test's call for `Cc1ccccc1C(=O)c1ccc(Nc2ccc(Br)cc2N)cc1Cl` is ___
RESULT: TRUE

QUERY: Fill in: this test's call for `Cc1[nH]c(C=C2C(=O)Nc3ccc(S(=O)(=O)N(C)c4cccc(Cl)c4)cc32)c(C)c1C(=O)N1CCN(C)CC1` is ___
RESULT: TRUE

QUERY: Fill in: this test's call for `COc1nc(C)cnc1NS(=O)(=O)c1cccnc1-c1ccc(-c2nnco2)cc1` is ___
RESULT: FALSE

QUERY: Fill in: this test's call for `Cc1cn([C@@H]2C[C@@H](O)[C@H](CO)O2)c(=O)[nH]c1=O` is ___
RESULT: FALSE

QUERY: Fill in: this test's call for `FC(F)(F)c1ccc(C=Cc2nc(COc3ccc(CCCCn4ccnn4)cc3)co2)cc1` is ___
RESULT: TRUE

QUERY: Fill in: this test's call for CNC1[C@H](O)C(O[C@@H]2C(O)C(O[C@H]3O[C@H]([C@@H](C)NC)CC[C@H]3N)[C@@H](N)C[C@H]2N)OC[C@]1(C)O (some centres undefined) is ___
RESULT: FALSE

QUERY: Fill in: this test's call for `COc1ccc2nc3cc(Cl)ccc3c(Nc3cc(CN4CCCC4)c(O)c(CN4CCCC4)c3)c2n1` is ___
RESULT: TRUE

QUERY: Fill in: this test's call for `CC(C)C[C@@H](N)[C@H](O)C(=O)N[C@H](C(=O)N[C@H](C(=O)N[C@@H](CC(=O)O)C(=O)O)C(C)C)C(C)C` is ___
RESULT: FALSE

QUERY: Fill in: this test's call for `CCOC(=O)c1c(CSc2ccccc2)n(C)c2cc(Br)c(O)c(CN(C)C)c12` is ___
RESULT: TRUE

----------
test: qHTS of pediatric cancer cell lines to identify multiple opportunities for drug repurposing: Primary screen for SJ-GBM2 cells (AID 1347091); settings: SJ-GBM2 viability, CellTiter-Glo luminescence, 48 h; series mostly up to 46 µM
Inconclusive results are not listed. Activity calls are given as the source filed them. Calls come from the whole dose curve; as a rule, active = well fitted cell-killing curve with a large enough effect; inconclusive = small, poorly fitted or top-dose-only effect; inactive = no such curve, though single readings can be large or run the other way.
Valid outcomes are listed here; reply with one: active, inactive

QUERY: Fill in: this test's call for `Cc1ccc(S(=O)(=O)OCC(=O)Nc2ccc(C(=O)O)c(O)c2)cc1` is ___
RESULT: inactive

QUERY: Fill in: this test's call for `CCCCc1ccc(NS(=O)(=O)c2ccc(C)c(C(=O)N3CCN(c4cccc(C)c4C)CC3)c2)cc1` is ___
RESULT: active

QUERY: Fill in: this test's call for `Cc1[nH]c(C=C2C(=O)Nc3ccc(S(=O)(=O)N(C)c4cccc(Cl)c4)cc32)c(C)c1C(=O)N1CCN(C)CC1` is ___
RESULT: active

QUERY: Fill in: this test's call for `CN(C)CC[C@H](CSc1ccccc1)Nc1ccc(S(=O)(=O)NC(=O)c2ccc(N3CCN(Cc4ccccc4-c4ccc(Cl)cc4)CC3)cc2)cc1[N+](=O)[O-]` is ___
RESULT: active

QUERY: Fill in: this test's call for `O=C(NC[C@H](O)CO)c1ccncc1Nc1ccc(I)cc1F` is ___
RESULT: inactive

QUERY: Fill in: this test's call for `CC(C)C[C@H](NC(=O)c1cc2ccccc2s1)C(=O)N1CCN(C(=O)[C@H](CO)NS(=O)(=O)c2ccc(Cl)cc2Cl)CC1` is ___
RESULT: active

QUERY: Fill in: this test's call for `O=C(O)CCNc1cc(N2CCc3ccccc3CC2)nc(-c2ccccn2)n1` is ___
RESULT: inactive

QUERY: Fill in: this test's call for `CN(C)c1ccc(-c2nc3ncc(Cl)c(N4CCN(CC(=O)Nc5nccs5)CC4)c3[nH]2)cc1` is ___
RESULT: active
